system: ovarian adenocarcinoma cell lines; test: Cell viability, ovarian adenocarcinoma cell lines taken together; assay type: cell-based; details: 96 hours; A2780, OV90, ACRP, CaOV-3; read-out: IC50 values, all four lines
pIC50: −log10 of the molar value.
quantity: pIC50

Exercise: // pIC50 lookup, key: CCNCCC(O)CNCCCCNCC(O)CCNCC (stereo not shown) [ivospemin, 3,8,13,18-tetraazaicosane-6,15-diol]
Solution: 5.49 to 6.02

---

tested on: ACRP; experiment: Cell viability assay (CellTiter-Blue), ACRP; assay type: cell-based; conditions: ivospemin 96 hours, cisplatin resistant
quantity: pIC50
Convention used: pIC50 is expressed as -log10 of the molar concentration.

Exercise: # input compound: CCNCCC(O)CNCCCCNCC(O)CCNCC (stereo not shown) ; wanted: its pIC50
Solution: 5.85
